Below, each entry is listed with its recorded inhibition of growth at 10 µM.
tested on: Malme-3M; assay: Antiproliferative activity against human Malme-3M cells assessed as cell growth inhibition at 10 uM incubated for 48 hrs by SRB assay relative to control; type: functional; details: read-out: GI

Cc1nc2c(cnn2-c2ccccc2)c(=O)n1-c1ccc(NC(=O)c2ccc(F)cc2)cc1 = 31.6%
CC(=O)Nc1ccc(-n2c(C)nc3c(cnn3-c3ccccc3)c2=O)cc1 = 22.3%

Q) Entry `COc1ccc(/C=C/C(=O)c2ccc(-n3c(C)nc4c(cnn4-c4ccccc4)c3=O)cc2)cc1` has what inhibition of growth at 10 µM?
A) 39.5%

Q) Look up inhibition of growth at 10 µM: `Cc1nc2c(cnn2-c2ccccc2)c(=O)n1-c1ccc(N2C(=O)C=CC2=O)cc1`
A) < 15%

Q) # query: inhibition of growth at 10 µM of entry `Cc1nc2c(cnn2-c2ccccc2)c(=O)n1-c1ccc(/N=C2\C(=O)Nc3ccccc32)cc1`
A) 23.1%

# credit: ChEMBL document CHEMBL5356993
